Sourced from patent US11214803B2

test system: Yap1 mRNA; experiment: Antisense inhibition of human Yap1 in SNU-449 cells by modified oligonucleotides, single dose (Example 5, RTS36584); assay type: cell-based; details: Table 40 (separate experiment); SNU-449 cells, 10,000 cells per well, free uptake, 2,000 nM oligonucleotide, approx. 48 hours; RTS36584; normalized to RIBOGREEN; Yap1 mRNA relative to untreated control
Strand notation (5' to 3'): a small letter for the sugar, then the base; units joined by * are phosphorothioate-linked, units joined directly phosphodiester-linked; [ ] holds rarer units or linkages, { } end groups; capitals alone tell only the bases. e = 2'-O-(2-methoxyethyl) (MOE); k = constrained ethyl (cEt); [5mC] = 5-methylcytosine; d = 2'-deoxy (DNA)
measured-quantity: YAP1 (% UTC)
Number first, unit second: that is the form wanted.

| substance | tested-system | YAP1 (% UTC) |
| --- | --- | --- |
| 1198783 (antisense kA*eT*kG*dT*dA*dA*dT*dA*dT*dT*dG*d[5mC]*eA*eA*kT*k[5mC]) [Compound 1198783] | Yap1 mRNA | 78 % UTC |

Annotate the substance 1198721 (kA*eT*kG*dG*dA*dA*dA*dT*dT*dG*dT*d[5mC]*eT*e[5mC]*kA*kT; antisense) [Compound 1198721] with its measured YAP1 (% UTC).
48 % UTC

Annotate the substance 1198748 (kA*eA*kG*d[5mC]*dA*d[5mC]*dT*dT*dT*dT*dA*d[5mC]*eA*eT*kT*kA; antisense) [Compound 1198748] with its measured YAP1 (% UTC).
81 % UTC

Annotate the substance 1198718 (kG*eA*kA*dA*dT*dT*dG*dT*d[5mC]*dT*d[5mC]*dA*eT*eG*k[5mC]*k[5mC]; antisense) [Compound 1198718] with its measured YAP1 (% UTC).
9 % UTC

Annotate the substance 1198747 (kA*eG*k[5mC]*dA*d[5mC]*dT*dT*dT*dT*dA*d[5mC]*dA*eT*eT*kA*kG; antisense) [Compound 1198747] with its measured YAP1 (% UTC).
38 % UTC

Annotate the substance 1198725 (kT*eA*kG*dA*dG*dT*dA*dT*dG*dT*dG*dG*e[5mC]*eA*kA*kT; antisense) [Compound 1198725] with its measured YAP1 (% UTC).
23 % UTC

Annotate the substance 1198803 (antisense kT*eT*kA*dG*dA*d[5mC]*dT*dA*dA*dG*dT*dA*eA*eG*kG*kT) [Compound 1198803] with its measured YAP1 (% UTC).
62 % UTC

Annotate the substance 1198777 (kA*eT*kT*dG*d[5mC]*dA*dA*dT*d[5mC]*dT*dG*dT*e[5mC]*eT*kG*kA; antisense) [Compound 1198777] with its measured YAP1 (% UTC).
84 % UTC

---

test: Tolerability in CD-1 mice, plasma chemistry markers (Example 18); format: in vivo; conditions: male CD-1 mice, 50 mg/kg s.c. twice a week (total of 9 treatments), day 34
Strand notation (5' to 3'): a small letter for the sugar, then the base; units joined by * are phosphorothioate-linked, units joined directly phosphodiester-linked; [ ] holds rarer units or linkages, { } end groups; capitals alone tell only the bases. k = constrained ethyl (cEt); [5mC] = 5-methylcytosine; d = 2'-deoxy (DNA)
measured-quantity: TBIL
Number first, unit second: that is the form wanted.

| substance | measured-quantity | reported-value |
| --- | --- | --- |
| 1076453 (GTAATATTGCAATCTG; 3-10-3 cEt gapmer, further chemistry not given here) [compound 1076453] | TBIL | 0.24 mg/dL |

Annotate the substance 958499 (ATTAGAGTATGTGGCA; 3-10-3 cEt gapmer, further chemistry not given here) [compound 958499] with its measured TBIL.
0.18 mg/dL

Annotate the substance 1076481 (k[5mC]*kT*kA*dA*dG*dT*dA*dA*dG*dG*dT*dT*dT*k[5mC]*k[5mC]*k[5mC]) [compound 1076481] with its measured TBIL.
0.23 mg/dL

Annotate the substance 1074755 (k[5mC]*kA*k[5mC]*dT*dT*dT*dT*dA*d[5mC]*dA*dT*dT*dA*kG*kG*kA; antisense) [compound 1074755] with its measured TBIL.
0.21 mg/dL

---

Known % UTC 148 nM of a selection of substances
tested on: Yap1 mRNA; test: Dose-dependent inhibition of human Yap1 in A-431 cells (Example 6, 5,000 cells per well, RTS4814); format: cell-based; conditions: Table 54; A-431 cells, free uptake, 148 nM, approximately 48 hours, RTS4814
Strand notation (5' to 3'): a small letter for the sugar, then the base; units joined by * are phosphorothioate-linked, units joined directly phosphodiester-linked; [ ] holds rarer units or linkages, { } end groups; capitals alone tell only the bases. k = constrained ethyl (cEt); [5mC] = 5-methylcytosine; d = 2'-deoxy (DNA)
// units = % UTC; emit number, no label

Here's what some known entries look like.
| substance | reported-value |
| --- | --- |
| 716454 (antisense k[5mC]*kG*kA*dG*dA*dT*dT*dT*dA*dA*dA*dT*dA*kA*kG*kG) [compound 716454] | 91 |
| 716502 (antisense k[5mC]*kA*k[5mC]*dA*dG*dT*dG*dA*dT*dT*dG*d[5mC]*dA*kT*kT*kT) [compound 716502] | 73 |
| 715478 (kA*k[5mC]*k[5mC]*dA*dT*dT*dA*dT*dT*dA*d[5mC]*dT*d[5mC]*k[5mC]*kT*kG; antisense) [compound 715478] | 72 |
| 716469 (antisense kG*kT*kT*dT*dG*d[5mC]*dT*d[5mC]*d[5mC]*dT*dT*dT*d[5mC]*k[5mC]*kA*kA) [compound 716469] | 71 |

Provide measured % UTC 148 nM on Yap1 mRNA for 716424 (antisense kG*k[5mC]*kA*dA*dT*dG*dG*dA*d[5mC]*dA*dA*dG*dG*kA*kA*kG) [compound 716424] please.
76

Provide measured % UTC 148 nM on Yap1 mRNA for 716505 (antisense kG*kA*kT*dT*dT*dA*dA*dT*d[5mC]*dT*dT*dT*d[5mC]*kT*kG*k[5mC]) [compound 716505] please.
83

Provide measured % UTC 148 nM on Yap1 mRNA for 715435 (kG*kG*kT*d[5mC]*dT*dT*dG*dT*dT*d[5mC]*dT*dT*dA*kT*kG*kG; antisense) [compound 715435] please.
80

---

tested on: Yap1 mRNA; assay: Antisense inhibition of human Yap1 in A-431 cells by cEt gapmers, single dose (Example 3, RTS36584); type: cell-based; details: Table 29; Yap1 mRNA as percent of untreated control; 3-10-3 cEt gapmers targeting SEQ ID NO.: 1, and 2
Strand notation (5' to 3'): a small letter for the sugar, then the base; units joined by * are phosphorothioate-linked, units joined directly phosphodiester-linked; [ ] holds rarer units or linkages, { } end groups; capitals alone tell only the bases. k = constrained ethyl (cEt); [5mC] = 5-methylcytosine; d = 2'-deoxy (DNA)
measured-quantity: YAP1 (% UTC)
Number first, unit second: that is the form wanted.

Here's what some known entries look like.
| substance | tested-system | reported-value |
| --- | --- | --- |
| 1075695 (kG*kA*kA*dT*dA*dA*d[5mC]*dA*d[5mC]*d[5mC]*dA*d[5mC]*dA*kT*kT*kA; antisense) [compound 1075695] | Yap1 mRNA | 30 % UTC |
| 1074223 (antisense kG*kA*kA*dA*d[5mC]*dA*dG*d[5mC]*dT*d[5mC]*d[5mC]*d[5mC]*dA*kA*k[5mC]*kT) [compound 1074223] | Yap1 mRNA | 48 % UTC |

Okay, now this substance:
Annotate the substance 1074255 (antisense kT*k[5mC]*kA*dT*d[5mC]*dT*dG*dG*dG*dA*d[5mC]*dA*dG*k[5mC]*kA*kT) [compound 1074255] with its measured YAP1 (% UTC).
16 % UTC

---

test system: Yap1 mRNA; test: Antisense inhibition of human Yap1 in A-431 cells by cEt gapmers, single dose (Example 4, RTS4814); format: cell-based; conditions: Yap1 mRNA remaining as percent of untreated control; 3-10-3 cEt gapmers; A-431 cells; Table 36
Strand notation (5' to 3'): a small letter for the sugar, then the base; units joined by * are phosphorothioate-linked, units joined directly phosphodiester-linked; [ ] holds rarer units or linkages, { } end groups; capitals alone tell only the bases. k = constrained ethyl (cEt); [5mC] = 5-methylcytosine; d = 2'-deoxy (DNA)
measured-quantity: YAP1 (% UTC)
// units = % UTC; emit number, no label

| substance | tested-system | measured-quantity | uom | reported-value |
| --- | --- | --- | --- | --- |
| 1075094 (kG*kA*kT*dA*dA*dA*dT*dG*dT*dA*dA*d[5mC]*dT*kA*kG*k[5mC]; antisense) [compound 1075094] | Yap1 mRNA | YAP1 (% UTC) | % UTC | 10 |

Annotate the substance 1075670 (antisense kT*kA*kT*dA*dT*dA*dT*dG*dA*dT*dG*dG*dA*k[5mC]*kT*kG) [compound 1075670] with its measured YAP1 (% UTC).
39

Annotate the substance 1074774 (k[5mC]*kA*kA*dG*dA*dA*dT*dA*d[5mC]*d[5mC]*d[5mC]*dA*dG*kT*kT*kA; antisense) [compound 1074774] with its measured YAP1 (% UTC).
16
